All values here come from ChEMBL document CHEMBL1122780.

Catalogue of LD50 readings, one per entry.
- experiment-notes: Compound was tested for toxicity in mice after intraperitoneal administration
- Type: organism-based
- particulars: mouse, in vivo, ip

compound: COc1cc2c(cc1OC)-c1cc(Nc3c(C)cc(C)cc3C)nc(=O)n1CC2.Cl
LD50, mg/kg: 82.5

compound: COc1cc2c(cc1OC)-c1cc(=Nc3c(C)cc(C)cc3C)n(CP(C)(C)=O)c(=O)n1CC2.Cl
LD50, mg/kg: 65

compound: CCN(c1cc2n(c(=O)n1)CCc1cc(OC)c(OC)cc1-2)c1c(C)cc(C)cc1C
LD50, mg/kg: 65

compound: COc1cc2c(cc1OC)-c1c/c(=N\c3c(C)cc(C)cc3C)n(C)c(=O)n1CC2.Cl [TREQUINSIN HYDROCHLORIDE]
LD50, mg/kg: 150

compound: CCn1c(=Nc2c(C)cc(C)cc2C)cc2n(c1=O)CCc1cc(OC)c(OC)cc1-2.Cl
LD50, mg/kg: 65

compound: COc1cc2c(cc1OC)-c1cc(N(C(C)=O)c3c(C)cc(C)cc3C)nc(=O)n1CC2
LD50, mg/kg: 825

compound: COc1cc2c(cc1OC)-c1cc(N(C)c3c(C)cc(C)cc3C)nc(=O)n1CC2.Cl
LD50, mg/kg: 27
